molecular target: Beta-3 adrenergic receptor (Homo sapiens); assay: Agonistic activity was determined by measuring cAMP accumulation in CHO cells expressing cloned human Beta-3 adrenergic receptor
Observation Type: pEC50
Numbers only, as −log10 of the molar value.

INSERT INTO assay_data (smiles_repr, target_of_assay, measured_result) VALUES
  ('O=S(=O)(Nc1cccc([C@@H](O)CNCCc2c[nH]c3c(OCc4ccccc4)cccc23)c1)c1cccs1', 'Beta-3 adrenergic receptor (Homo sapiens)', 8.12),
  ('CS(=O)(=O)Oc1cccc2c(CCNC[C@H](O)c3cccc(NS(=O)(=O)c4cc(Cl)c(Cl)s4)c3)c[nH]c12', 'Beta-3 adrenergic receptor (Homo sapiens)', 8.17);

// each molecule listed below needs its pEC50
1. CS(=O)(=O)Oc1cccc2c(CCNC[C@H](O)c3cccc(NS(=O)(=O)c4ccccc4N)c3)c[nH]c12
2. COc1cccc2c(CCNC[C@H](O)c3cccc(NS(=O)(=O)c4cccs4)c3)c[nH]c12
3. CS(=O)(=O)Oc1cccc2c(CCNC[C@H](O)c3cccc(NS(=O)(=O)c4cccc(N)c4)c3)c[nH]c12

## Result
1: 8.52; 2: 7.89; 3: 9.51

###

Kindly supply the reported Activity values for the records listed here.
target: Beta-1 adrenergic receptor (Homo sapiens, UniProt P08588); assay: Agonistic activity at human Beta-1 adrenergic receptor at 1000 nM concentration; assay type: functional
Sequence (P08588 whole entry, looked up): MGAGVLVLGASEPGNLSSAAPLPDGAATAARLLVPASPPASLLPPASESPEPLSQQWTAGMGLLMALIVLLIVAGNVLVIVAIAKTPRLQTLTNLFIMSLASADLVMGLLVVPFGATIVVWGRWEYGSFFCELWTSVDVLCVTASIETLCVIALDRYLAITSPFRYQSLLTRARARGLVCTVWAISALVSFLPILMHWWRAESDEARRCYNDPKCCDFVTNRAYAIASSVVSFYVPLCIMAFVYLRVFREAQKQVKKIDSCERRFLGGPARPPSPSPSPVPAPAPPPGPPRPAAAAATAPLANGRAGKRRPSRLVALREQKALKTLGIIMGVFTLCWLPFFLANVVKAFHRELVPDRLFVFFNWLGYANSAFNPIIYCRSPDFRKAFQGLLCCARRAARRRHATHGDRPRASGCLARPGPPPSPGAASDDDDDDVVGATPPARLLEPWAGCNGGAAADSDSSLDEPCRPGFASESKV
Numbers only, in %.

The examples below pair each entry with its known result.
INSERT INTO results (smiles_repr, measured_result) VALUES
  ('CS(=O)(=O)Oc1cccc2c(CCNC[C@H](O)c3cccc(NS(=O)(=O)c4cccs4)c3)c[nH]c12', 12),
  ('COc1cccc2c(CCNC[C@H](O)c3cccc(NS(=O)(=O)c4cccs4)c3)c[nH]c12', 6),
  ('O=S(=O)(Nc1cccc([C@@H](O)CNCCc2c[nH]c3c(OCc4ccccc4)cccc23)c1)c1cccs1', 10),
  ('CS(=O)(=O)Oc1cccc2c(CCNC[C@H](O)c3cccc(NS(=O)(=O)c4cccc(F)c4)c3)c[nH]c12', 10);

// each molecule listed below needs its Activity
1. COc1cccc(S(=O)(=O)Nc2cccc([C@@H](O)CNCCc3c[nH]c4c(OS(C)(=O)=O)cccc34)c2)c1
2. CS(=O)(=O)Oc1cccc2c(CCNC[C@H](O)c3cccc(NS(=O)(=O)c4cccc(N)c4)c3)c[nH]c12

## Result
[11, 3]

// each molecule listed below needs its Activity
1. CS(=O)(=O)Oc1cccc2c(CCNC[C@H](O)c3cccc(NS(=O)(=O)CC(F)(F)F)c3)c[nH]c12
2. CS(=O)(=O)Oc1cccc2c(CCNC[C@H](O)c3cccc(NS(=O)(=O)c4ccc(Br)s4)c3)c[nH]c12

## Result
1: 0; 2: 6

###

target: Beta-3 adrenergic receptor (Homo sapiens, UniProt P13945)
Sequence (P13945 whole entry): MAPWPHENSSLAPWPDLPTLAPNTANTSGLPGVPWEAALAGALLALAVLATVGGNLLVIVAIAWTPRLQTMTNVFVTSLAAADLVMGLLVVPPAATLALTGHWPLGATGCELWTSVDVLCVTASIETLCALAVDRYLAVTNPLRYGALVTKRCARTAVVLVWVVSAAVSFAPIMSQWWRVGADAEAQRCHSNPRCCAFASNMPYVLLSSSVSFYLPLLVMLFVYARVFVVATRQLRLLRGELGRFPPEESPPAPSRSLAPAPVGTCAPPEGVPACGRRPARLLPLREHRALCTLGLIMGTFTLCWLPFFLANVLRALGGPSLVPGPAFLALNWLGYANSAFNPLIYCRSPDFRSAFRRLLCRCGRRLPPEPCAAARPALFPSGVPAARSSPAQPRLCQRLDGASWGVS
Observation Type: Ki
Remember to quote the unit after the number.

## Task Look at this molecule and give its reported Ki. C[C@H](Cc1c[nH]c2c(OS(C)(=O)=O)cccc12)NC[C@H](O)c1cccc(NS(=O)(=O)c2cccs2)c1
## Result 4 nM

###

target: Beta-2 adrenergic receptor (Homo sapiens, UniProt P07550); experiment: Agonistic activity was determined by measuring cAMP accumulation in CHO cells expressing cloned human Beta-2 adrenergic receptor
Sequence (P07550 whole entry): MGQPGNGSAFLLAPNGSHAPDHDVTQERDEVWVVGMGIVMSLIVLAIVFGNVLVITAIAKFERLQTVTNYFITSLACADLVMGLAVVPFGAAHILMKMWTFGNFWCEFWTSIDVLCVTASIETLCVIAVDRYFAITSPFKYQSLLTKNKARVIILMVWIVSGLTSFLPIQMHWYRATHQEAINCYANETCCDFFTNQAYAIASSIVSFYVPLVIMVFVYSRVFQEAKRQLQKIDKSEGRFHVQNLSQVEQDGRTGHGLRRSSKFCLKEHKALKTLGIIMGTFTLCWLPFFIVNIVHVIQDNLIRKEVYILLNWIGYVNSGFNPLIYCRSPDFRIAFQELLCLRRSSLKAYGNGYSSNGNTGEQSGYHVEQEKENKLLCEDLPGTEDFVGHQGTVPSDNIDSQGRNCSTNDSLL
Observation Type: EC50 (nM)
Answers are plain numbers, in nM.

## Task Given the entry C[C@H](Cc1c[nH]c2c(OS(C)(=O)=O)cccc12)NC[C@H](O)c1cccc(NS(=O)(=O)c2cccs2)c1 , what EC50 was observed with Beta-2 adrenergic receptor (Homo sapiens, UniProt P07550)?
## Result 18

Where these numbers come from: ChEMBL document CHEMBL1137066
